Each recorded value in this set is attributed to the supplement of paper PMC10266784.

B1: library; numbered along this chain (parent)
chain: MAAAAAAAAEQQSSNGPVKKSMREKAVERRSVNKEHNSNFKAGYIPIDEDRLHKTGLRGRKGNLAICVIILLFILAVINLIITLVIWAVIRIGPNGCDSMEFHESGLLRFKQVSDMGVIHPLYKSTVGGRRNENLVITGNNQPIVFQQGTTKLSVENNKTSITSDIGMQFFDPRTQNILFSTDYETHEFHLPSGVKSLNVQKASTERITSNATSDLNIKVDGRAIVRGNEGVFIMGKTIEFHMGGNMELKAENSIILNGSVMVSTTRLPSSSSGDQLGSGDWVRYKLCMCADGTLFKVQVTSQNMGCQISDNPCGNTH

# Variants of: B1
# Protocol description: SGCB cell-surface expression functional score (HA stain, bin4 vs bin1, normalised to synonymous) (log10 ratio); higher = more cell-surface SGCB (functional)
Label rule, in plain words: SGCB cell-surface expression functional score (log10) of -0.03 and up is rule met, under -0.03 is rule not met.

Check out these entries, answers already filled in.
[
  {
    "Variant id": "V300E",
    "Category": "rule not met"
  },
  {
    "Variant id": "T138Q",
    "Category": "rule not met"
  },
  {
    "Variant id": "S99K",
    "Category": "rule not met"
  },
  {
    "Variant id": "A5Y",
    "Category": "rule met"
  },
  {
    "Variant id": "L216N",
    "Category": "rule not met"
  },
  {
    "Variant id": "S260D",
    "Category": "rule not met"
  }
]

Assess whether reported SGCB cell-surface expression functional score (log10) for A6W sits at -0.03 or higher.
rule not met

Say whether G139L shows SGCB cell-surface expression functional score (log10) of -0.03 or more.
rule not met

Quick check: does A224R have SGCB cell-surface expression functional score (log10) greater than or equal to -0.03?
rule not met

Record K297T ; criterion: SGCB cell-surface expression functional score (log10) no lower than -0.03. Met?
rule not met

Is SGCB cell-surface expression functional score (log10) at least -0.03? Consider L191A
rule not met

Identify whether the reported SGCB cell-surface expression functional score (log10) of the following variant is -0.03 or greater: A9C
rule met

Could you please find out whether L71N has SGCB cell-surface expression functional score (log10) that meets -0.03 or exceeds it?
rule met
